Origin of measurements: patent US20060253917A1

- test.system: T1, OsHOS59 aa 1-100 (Oryza sativa, UniProt Q94LW4 113-212)
- T1 construct: bait, Gal4 DBD fusion; also called PN20559; O. sativa Homeobox Protein HOS59, Fragment
- T1 sequence: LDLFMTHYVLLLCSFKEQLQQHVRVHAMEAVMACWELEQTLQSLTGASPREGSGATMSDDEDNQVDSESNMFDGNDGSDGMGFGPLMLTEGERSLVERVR
- method: Y2H; output trait library

binder	binding result
OsBAB07943 aa 525-767 (other, prey, AD fusion; also called PN23832; O. sativa Putative Eukaryotic Translation Initiation Factor 3 Large Subunit) LADSLNKARSLIHPPVKKPSKLGENLTSLAAVVENEHKRLLARKSIIEKRKEDLERQILEKEKEEEKKRLSVLKKSAEDERIRLLNDVKLREQERIRRQLVEKEKIEAEELLQKQIKEIAKRGGKKPVLQGEVTKEAVMELAMNEQFKERQEMEKKLQKTGKQMDYLERAKRQEEAPLIEQAFQKRLEVEKILHEQEQLREIELSKQHHAGDLQEKNRLSRMLEHKNIFQERIVQRREAEFSR	binds
OsAAG13633 aa 799-951 (other, prey, AD fusion; also called PN25701; O. sativa Putative Myosin) IRSLKFEYDNLKILMSTNDSEKHNLASQVLKLRRALESREDVKQNGVKSDEDNHHATSKRIKHDDGTTGSCNVLPSTNRHNANGDCNGHDRRDAAHDQSVKELEILKERNTALEEELKELHGRYSEISLKFAEVEGERQQLVMTVRALKNSLR	binds
